test: NCI Yeast Anticancer Drug Screen. Data for the bub3 strain (AID 167); conditions: S. cerevisiae bub3 mutant strain, at 1.2 µM, stronger effect = higher value
About 79,000 compounds went through this panel and 15% of them were active in at least one assay; those are over-represented in the sample as a whole.
VALUE TYPE: growth inhibition (%)
Please reply with the bare figure in % and do not write the unit itself.

- MOLECULE: "CCCCCCc1cc(C(=O)OC/C(C)=N/NC(N)=O)c2ccccc2n1"
  growth inhibition [%]: 0
- MOLECULE: "CCCCCCCCCCCC1=C(O)C(=O)C=C(O)C1=O"
  growth inhibition [%]: -10
- MOLECULE: "Cc1c(C(Cc2ccccc2N(C)C(=O)/C=C\\C(=O)O)c2c[nH]c3ccccc23)c2ccccc2n1C (stereo unspecified)"
  growth inhibition [%]: -9
- MOLECULE: "OC1(c2ccccc2)CSC2=Nc3ccccc3C3CCN1N23 (stereo unspecified)"
  growth inhibition [%]: -56

Query CNC(=O)OCc1c(COC(=O)NC)c(-c2ccc(Cl)c(Cl)c2)n2c1CCC2 yields growth inhibition of -58

Form: molecule = CN1Cc2ccccc2/C=C\c2ccccc21 ; growth inhibition = -2

Lookup result for CN(C)CCn1c2c3ccccc3ccc2c2oc(=O)c3ccccc3c21 ; measured growth inhibition: -8

====

Property: growth inhibition; scope: individual molecules
experiment: NCI Yeast Anticancer Drug Screen. Data for the rad50 strain (AID 155);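 further: 0% = growth of vehicle-only cultures of the same strain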; settings: S. cerevisiae rad50 strain growth inhibition; at 11.0 µM; stronger effect = higher value
The panel holds about 79,000 compounds, 15% with a hit somewhere; the sample as a whole holds those more often.
Report the value in % with no unit label.

- MOLECULE: "CCCCCCCCCCCCCCCCCCNC"
  DATA VALUE: -2
- MOLECULE: "NNC(=O)CCc1ccc2ccc3ccccc3c2c1"
  DATA VALUE: 9

Per the records, this molecule ( c1ccc2c(c1)NC(NC1Nc3ccccc3N1)N2 ) has growth inhibition equal to 8

growth inhibition in this record for COC(=O)C1=C(C(=O)OC)C2(C)C=CC1O2 (stereo not drawn) : 7

For O=C1c2cc([N+](=O)[O-])ccc2-c2cccc(F)c21 the molecule record lists growth inhibition as 61

Quick note, growth inhibition for Cc1cc(CO)c(O)c(CNCc2cc(C)cc(CO)c2O)c1 landed at 2

Reported growth inhibition of OC1CSCCCSCCSCCCSC1 : -3

The recorded growth inhibition for entry CC1(C)[C@@H]2CC[C@]1(C)[C@H](OC(=O)CSC#N)C2 equals 20

====

test: NCI Yeast Anticancer Drug Screen. Data for the sgs1 strain (AID 173);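 further: 0% = growth of vehicle-only control cultures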; conditions: S. cerevisiae sgs1 mutant, at 3.7 µM
About 79,000 compounds went through this panel and 15% of them were active in at least one assay; those are over-represented in the sample as a whole. The source made the active and inactive calls. No stated cut-off is given here; in the data, active means growth inhibition above about 70%; inactive means the rest.
Please state which outcome applies, choosing from Yes for active, No for inactive

- MOLECULE: "Cc1[nH]c2ccccc2c1C(c1ccc(N)cc1)c1c(C)[nH]c2ccccc12"
  GROUP LABEL: "No"
- MOLECULE: "CC(C)(CN1CCCCC1)C(=O)CC(SCCS(=O)(=O)O)c1ccc(Br)cc1 (configuration not stated)"
  GROUP LABEL: "No"
- MOLECULE: "c1ccc2c(c1)sc1cc3ccncc3cc12"
  GROUP LABEL: "No"
- MOLECULE: "O=S(=O)(CCCl)c1ccccc1Cl"
  GROUP LABEL: "No"
- MOLECULE: "Clc1cccc(C(Nc2nncs2)Nc2nncs2)c1Cl"
  GROUP LABEL: "No"

Query: Could you please tell me the result logged for CC1=C(C)Cc2c(O)ccc(O)c2C1 in this assay?
Response: No
